Data provenance: patent US9487481B2

Entries and their Relative BAL protein vs. control
- Test system: mice
- ASSAY COMMENT: Pulmonary Toxicity Assay (BAL protein)
- Assay type: in vivo
- CONDITION: oral, 30 mg/kg, 24 hr post-dose, >1 = increased pulmonary toxicity

Consider the following illustrative entries.
[[record]]
molecule = "CCCCCC[C@@H]1CCc2cc([C@@H]3CC[C@](N)(CO)C3)ccc2C1 (single isomer, unassigned)"
result = 0.99

[[record]]
molecule = "CCCCCOc1ccc2cc([C@@H]3CC[C@](N)(CO)C3)ccc2c1 [Comparative Compound 11, reference compound]"
result = 1.33


// query Record request: Relative BAL protein vs. control value, item CCCCCC[C@H]1CCc2cc([C@H]3CC[C@](N)(CO)C3)ccc2C1
// result 1.03

// query Okay, and CCCCCC[C@@H]1CCc2cc([C@H]3CC[C@](N)(CO)C3)ccc2C1 (single isomer, unassigned) ?
// result 0.96
